biological target: UniProt P41597; assay: Functional Ca2+ release test (B-1); settings: Chem-1 cell line transfected with human CCR2; 50% inhibition of the MCP-1 effect, MCP-1 at EC50 (about 5 nM); in some cases means of several determinations
Sequence (P41597 1-360 isoform P41597-2): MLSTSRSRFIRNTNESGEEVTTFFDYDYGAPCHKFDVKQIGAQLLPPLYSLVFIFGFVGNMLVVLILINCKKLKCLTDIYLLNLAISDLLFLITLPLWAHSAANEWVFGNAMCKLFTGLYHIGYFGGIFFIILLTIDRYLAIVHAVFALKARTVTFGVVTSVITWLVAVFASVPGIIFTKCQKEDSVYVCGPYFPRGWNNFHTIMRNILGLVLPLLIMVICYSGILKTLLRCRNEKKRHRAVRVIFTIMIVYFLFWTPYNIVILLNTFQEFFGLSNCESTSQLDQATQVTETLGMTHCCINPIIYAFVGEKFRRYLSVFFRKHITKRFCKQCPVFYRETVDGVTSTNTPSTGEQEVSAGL
measure_name: IC50 (nM)
Kindly answer with a numeric value in nM, unit omitted.

Form field: reported IC50 of O=c1[nH]c(-c2ncccc2Cl)nc(C(F)(F)F)c1Oc1ccc(F)c(Cl)c1
11

Please look up its IC50: O=c1[nH]c(-c2cccnn2)nc(C(F)(F)F)c1Oc1ccc(Cl)c(Cl)c1
9.5

# IC50 lookup, item O=c1[nH]c(-c2cn[nH]c2)nc(C(F)(F)F)c1Oc1ccc(Cl)c(Cl)c1
4.4

Fill blank: measured IC50 of the compound Nc1nc[nH]c1-c1nc(C(F)(F)F)c(Oc2ccc(Cl)c(Cl)c2)c(=O)[nH]1 is ____.
320

Which IC50 is listed for COc1nn(C)cc1-c1nc(C(F)(F)F)c(Oc2ccc(Cl)c(Cl)c2)c(=O)[nH]1 ?
692

Reported IC50 for COc1conc1-c1nc(C(F)(F)F)c(Oc2ccc(Cl)c(Cl)c2)c(=O)[nH]1 : what is it?
1.8

GET /values?readout=IC50&item= COc1ncccc1-c1nc(C(F)(F)F)c(Oc2ccc(Cl)c(C(F)(F)F)c2)c(=O)[nH]1
0.9

Quick one: IC50 of Cn1nc(-c2nc(C(F)(F)F)c(Oc3ccc(Cl)c(Cl)c3)c(=O)[nH]2)c2c(Cl)cccc21 ?
5.1
